Tested on: PmTbr T-box DNA-binding domain (GST fusion);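 further: 200 nM protein in PBS on universal arrays averaged over duplicate arrays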
Sequence: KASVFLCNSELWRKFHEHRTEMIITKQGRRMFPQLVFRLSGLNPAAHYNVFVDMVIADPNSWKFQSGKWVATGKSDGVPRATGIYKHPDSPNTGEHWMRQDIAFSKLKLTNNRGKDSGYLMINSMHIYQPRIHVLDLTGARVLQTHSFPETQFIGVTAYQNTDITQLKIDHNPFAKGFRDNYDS
Assay: PBM E-score of 8-mer (E-score (dimensionless, -0.5 to 0.5)); higher = stronger binding preference
Conditions: the construct has about 5 more residues each side
Over roughly 33,000 sequences, “E-score (dimensionless, -0.5 to 0.5)” has its median near -0.049; the highest 2% begin near 0.37. This excerpt belongs to a sample that is enriched for the highest values.
The sequences listed here are annotated with their PBM E-score of 8-mer.
// no unit string in output, number only

Sample records with PBM E-score of 8-mer:
{"sequence-input": "CAAGTGCG", "PBM E-score of 8-mer": 0.389}
{"sequence-input": "AATGTGTA", "PBM E-score of 8-mer": 0.226}
{"sequence-input": "AGACCACT", "PBM E-score of 8-mer": -0.234}
{"sequence-input": "CAGGTGCC", "PBM E-score of 8-mer": 0.4}
{"sequence-input": "GATACAGA", "PBM E-score of 8-mer": -0.189}

I have this sequence here, CAAGTGTC , and I need its recorded PBM E-score of 8-mer.
0.38

Give its PBM E-score of 8-mer value. Item: AACAGCCT
0.145

====

Tested on: PmTbr T-box DNA-binding domain (GST fusion);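 further: 200 nM protein in PBS on universal arrays averaged over duplicate arrays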
Sequence: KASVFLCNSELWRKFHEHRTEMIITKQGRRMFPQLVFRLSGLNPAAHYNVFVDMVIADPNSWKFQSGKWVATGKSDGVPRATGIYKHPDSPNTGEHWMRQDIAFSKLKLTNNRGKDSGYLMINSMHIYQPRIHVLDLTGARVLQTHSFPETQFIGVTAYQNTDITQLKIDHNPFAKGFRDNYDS
Assay: PBM E-score of 8-mer (E-score (dimensionless, -0.5 to 0.5)); Tbr is Tbrain of the sea star Patiria miniata (Pm) or the sea urchin Strongylocentrotus purpuratus (Sp); higher = stronger binding preference
Conditions: target sequence: T-box / the construct has about 5 more residues each side
In all, about 33,000 sequences were measured (“E-score (dimensionless, -0.5 to 0.5)”: median about -0.049, highest 2% from about 0.37 on). Shown is part of a subset that was picked to be rich in the highest values.
Listed below: PBM E-score of 8-mer values for each entry.
I'd appreciate a reply containing only the number, no unit.

Worked cases, answers included:
{"sequence-input": "GGTAACAA", "readout-number": 0.198}
{"sequence-input": "AACAATAT", "readout-number": 0.00943}

Name the reported PBM E-score of 8-mer value associated with the sequence CATGCAGC
-0.0211

# PBM E-score of 8-mer lookup, item GCCACCTA
0.336

Would you mind telling me what PBM E-score of 8-mer value was observed for AGCAGGTA ?
-0.0669

Please look up its PBM E-score of 8-mer: CATCGCGC
0.262

Which PBM E-score of 8-mer is reported for this sequence? CGGTATAC
-0.0592

Requested read-out: PBM E-score of 8-mer. Entry: ACCATTGG
-0.068

Endpoint output: PBM E-score of 8-mer of CCGCCCAA . Value?
-0.101

I have this sequence here, AACAGGTC , and I need its recorded PBM E-score of 8-mer.
0.14

Need PBM E-score of 8-mer of GGAGGTCA , thanks.
0.0158

I would be grateful if you could share the reported PBM E-score of 8-mer for GTGCTAGA .
0.382

Looking for the measured PBM E-score of 8-mer of AAGGCCAT , can you help?
-0.225

# PBM E-score of 8-mer lookup, item CGACGCAC
-0.0252

Item CCGTTGGC has what recorded PBM E-score of 8-mer?
0.151

Quick check: PBM E-score of 8-mer of GAGCCATC ?
-0.0135

The reported numbers originate from the supplement of paper PMC4166925.
